- target_or_system: human Cereblon WT GST-tagged protein (Homo sapiens, UniProt Q96SW2)
- Construct: purchased CISBIO 64BDCRBNPEH
- Sequence (Q96SW2 whole entry): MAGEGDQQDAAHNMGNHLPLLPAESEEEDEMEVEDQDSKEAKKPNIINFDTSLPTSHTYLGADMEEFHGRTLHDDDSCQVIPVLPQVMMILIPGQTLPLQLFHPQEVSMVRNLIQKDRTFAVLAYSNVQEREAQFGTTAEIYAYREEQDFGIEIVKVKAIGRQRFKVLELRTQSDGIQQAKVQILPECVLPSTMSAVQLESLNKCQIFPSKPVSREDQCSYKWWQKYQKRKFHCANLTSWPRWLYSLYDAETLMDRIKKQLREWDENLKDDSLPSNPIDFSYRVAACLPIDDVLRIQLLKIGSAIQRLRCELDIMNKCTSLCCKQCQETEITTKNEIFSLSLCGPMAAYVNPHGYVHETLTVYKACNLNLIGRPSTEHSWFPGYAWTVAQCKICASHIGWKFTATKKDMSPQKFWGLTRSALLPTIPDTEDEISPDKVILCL
- assay_details: CRBN-binding affinity by HTRF (CEREBLON BINDING kit)
- experimental_setup: HTRF inhibitory activity, CEREBLON BINDING kit; read-out: HTRF IC50
pIC50: −log10 of the molar value.
observable: pIC50

Record excerpt, results attached:
O=C1CCC(N2Cc3cc(CN4CC(=C5CCOc6cc(F)ccc65)C4)ccc3C2=O)C(=O)N1 (centres unmarked); > 6.30
Cc1cscc1C1=CCN(Cc2ccc3c(c2)CN(C2CCC(=O)NC2=O)C3=O)CC1 (centres unmarked); > 6.30
Cc1nc(N2CCN(Cc3ccc4c(c3)CN(C3CCC(=O)NC3=O)C4=O)CC2)c2c3c(sc2n1)CCC3 (centres unmarked); > 6.30

// each listed compound needs a value for pIC50
1. O=C1CCC(N2Cc3cc(CN4CCC(c5noc6cc(F)ccc56)CC4)ccc3C2=O)C(=O)N1 (centres unmarked)
2. O=C1CCC(N2Cc3cc(CN4CC=C(c5ncc6ccsc6n5)CC4)ccc3C2=O)C(=O)N1 (centres unmarked)
3. O=C1CCC(N2Cc3cc(CN4CC=C(c5cccc6cnccc56)CC4)ccc3C2=O)C(=O)N1 (centres unmarked)
4. O=C1CCC(N2Cc3cc(CN4CCC(c5ccnc(F)c5F)CC4)ccc3C2=O)C(=O)N1 (centres unmarked)
5. O=C1CCC(N2Cc3cc(CN4CCN(c5nc(N6CCOCC6)nc6ccsc56)CC4)ccc3C2=O)C(=O)N1 (centres unmarked)

Marked response:
["6.00 to 6.30", "6.00 to 6.30", "> 6.30", "6.00 to 6.30", "> 6.30"]

----------
- System: NCI-H1975
- assay_details: Tumor cell proliferation inhibition (CellTiter-Meiluncell Luminescent Cell Viability Assay), NCI-H1975
- experimental_setup: Homo sapiens, NCI-H1975, 96 h, read-out: inhibitory activity (IC50, nM) against tumor cells proliferation, H1975
observable: IC50

Record excerpt, results attached:
Cc1ccc(C2CCN(Cc3ccc4c(c3)CN(C3CCC(=O)NC3=O)C4=O)CC2)s1 (centres unmarked); 50 to 100 nM
O=C1CCC(N2Cc3cc(CN4CCC(c5cccs5)CC4)ccc3C2=O)C(=O)N1 (centres unmarked); 50 to 100 nM
O=C1CCC(N2Cc3cc(CN4CC=C(c5ccoc5)CC4)ccc3C2=O)C(=O)N1 (centres unmarked); 100 to 500 nM
Cc1cc(C2=CCN(Cc3ccc4c(c3)CN(C3CCC(=O)NC3=O)C4=O)CC2)cs1 (centres unmarked); 5 to 10 nM
O=C1CCC(N2Cc3cc(CN4CC=C(c5ccco5)CC4)ccc3C2=O)C(=O)N1 (centres unmarked); 100 to 500 nM

// each listed compound needs a value for IC50
1. O=C1CCC(N2Cc3cc(CN4CC=C(c5ncc6ccsc6n5)CC4)ccc3C2=O)C(=O)N1 (centres unmarked)
2. O=C1CCC(N2Cc3cc(CN4CC=C(c5ncccc5F)CC4)ccc3C2=O)C(=O)N1 (centres unmarked)
3. O=C1CCC(N2Cc3cc(CN4CCN(c5ccc(Cl)cc5)CC4)ccc3C2=O)C(=O)N1 (centres unmarked)

Marked response:
1: 10 to 50 nM; 2: 50 to 100 nM; 3: 50 to 100 nM

----------
- target_or_system: human Cereblon WT GST-tagged protein (Homo sapiens, UniProt Q96SW2)
- Construct: purchased CISBIO 64BDCRBNPEH
- assay_details: CRBN-binding affinity by HTRF (CEREBLON BINDING kit)
- experimental_setup: HTRF inhibitory activity, CEREBLON BINDING kit; read-out: HTRF IC50
pIC50: −log10 of the molar value.
Provide the reported pIC50 of each item.

// each listed molecule needs a value for pIC50
1. O=C1CCC(N2Cc3cc(CN4CCC(n5c(=O)[nH]c6cc(F)ccc65)CC4)ccc3C2=O)C(=O)N1 (centres unmarked)
2. O=C1CCC(N2Cc3cc(CN4CC(C5CCOc6cc(F)ccc65)C4)ccc3C2=O)C(=O)N1 (centres unmarked)
3. Cc1nc(N2CCN(Cc3ccc4c(c3)CN(C3CCC(=O)NC3=O)C4=O)CC2)c2ccsc2n1 (centres unmarked)
4. O=C1CCC(N2Cc3cc(CN4CCN(c5nsc6ccccc56)CC4)ccc3C2=O)C(=O)N1 (centres unmarked)
5. Cc1ccc(N2CCN(Cc3ccc4c(c3)CN(C3CCC(=O)NC3=O)C4=O)CC2)s1 (centres unmarked)
6. O=C1CCC(N2Cc3cc(CN4CCN(c5cncc(Cl)c5Cl)CC4)ccc3C2=O)C(=O)N1 (centres unmarked)

Marked response:
1. 6.00 to 6.30
2. 6.00 to 6.30
3. > 6.30
4. 6.00 to 6.30
5. 6.00 to 6.30
6. > 6.30
